# target.system: Histone-lysine N-methyltransferase EHMT2 (Homo sapiens) (UniProt Q96KQ7)
# Sequence (Q96KQ7 913-1193 limits assumed): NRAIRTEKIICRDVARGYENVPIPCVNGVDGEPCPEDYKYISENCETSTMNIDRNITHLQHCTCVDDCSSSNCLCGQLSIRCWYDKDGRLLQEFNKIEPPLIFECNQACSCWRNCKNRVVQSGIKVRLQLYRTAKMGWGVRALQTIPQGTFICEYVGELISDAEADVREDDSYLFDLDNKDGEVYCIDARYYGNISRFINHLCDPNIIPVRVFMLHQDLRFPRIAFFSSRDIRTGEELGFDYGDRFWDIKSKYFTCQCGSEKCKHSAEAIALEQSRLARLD
# protocol.notes: qHTS Assay for Inhibitors of Histone Lysine Methyltransferase G9a; further: nearly all actives have a fitted effect of over 75% in size
# stated.conditions: G9a H3K9 monomethylation, AlphaScreen, 2 h; series mostly up to 59 µM
In all, about 350,000 compounds went through this assay and about 31,000 (8.9%) were called active. Another 15% or so got no clear call; they are omitted. The call rests on the fitted dose curve; in most records, active means well fitted inhibition curve with a large enough effect; inconclusive means small, poorly fitted or top-dose-only effect; inactive means no such curve, though single readings can be large or run the other way. What follows is part of a selection rich in actives, with near analogues and random picks from the rest.
Please state which outcome applies, choosing from Yes (active), No (inactive)

Here's what some known entries look like.
> print(dat)
                                   molecule  category.label
1  Cc1cccc(NC(=O)c2ccc(F)c(S(=O)(=O)N(C)C3CCCCC3)c2)c1              No
2  COc1ccccc1CNS(=O)(=O)c1cc(Br)cc2c1N(C(C)=O)C(C)C2 (stereo not drawn)              No
3         COc1ccccc1C(=O)NC(=O)COC(=O)C1CC1              No
4         O=C(Nc1nnc(C2CC2)s1)c1cc(Cl)sc1Cl              No
5            CC(C)c1ccc(NC(=O)NC2CCCCC2)cc1              No
6  CC(=O)Nc1ccc(C(=O)CSc2nc3ccc(C)cc3[nH]2)cc1             Yes

Req: // outcome(item) with item = CCCn1c(C)cc(/C=C(\C#N)C(=O)OCC(=O)N(C)c2c(N)n(Cc3ccccc3)c(=O)[nH]c2=O)c1C
Resp: No

Req: What about CCCC(=O)N1CCN(c2nnc(-c3ccc(C)cc3)c3ccccc23)CC1 ?
Resp: No

Req: What about O=C(c1ccc(S(=O)(=O)N2CCCC2)cc1)N1CCN(c2ccccc2F)CC1 ?
Resp: No

Req: What about Cc1ccc2nc(SCC(=O)NC3CCCC3)[nH]c2c1 ?
Resp: No

// provenance: PubChem BioAssay AID504332
